Test system: 883617-216-R-J1-PDC tumor spheroids, viability;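 further: spheroids exposed to agents for 7 days before the viability read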
Assay: Anticancer human tumor 883617-216-R-J1-PDC patient-derived bladder carcinoma cell line growth inhibition [PI3K]
Details: second compound 1 µM; first compound 0.1 µM; hits give low values; spheroids with HUVEC and MSC
parameter.measured: viability, T/C (%)
One number for each entry, in %.

compound: CC(=O)c1c(C)c2cnc(Nc3ccc(N4CCNCC4)cn3)nc2n(C2CCCC2)c1=O + CC(Nc1ccc2c(c1)OCCn1cc(N3C(=O)OCC3C(F)F)nc1-2)C(N)=O
target.of.assay: 883617-216-R-J1-PDC tumor spheroids, viability;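 further: spheroids exposed to agents for 7 days before the viability read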
value.unit: %
readout.number: 10.1
--
compound: CNC(=O)c1ccc(N2C(=S)N(c3ccc(C#N)c(C(F)(F)F)c3)C(=O)C2(C)C)cc1F + Cc1nc(NC(=O)N2CCCC2C(N)=O)sc1-c1ccnc(C(C)(C)C(F)(F)F)c1
target.of.assay: 883617-216-R-J1-PDC tumor spheroids, viability;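 further: spheroids exposed to agents for 7 days before the viability read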
value.unit: %
readout.number: 27.3
--
compound: CNC(=O)c1ccc(N2C(=S)N(c3ccc(C#N)c(C(F)(F)F)c3)C(=O)C2(C)C)cc1F + CC(Nc1ncnc2nc[nH]c12)c1cc2cccc(Cl)c2c(=O)n1-c1ccccc1
target.of.assay: 883617-216-R-J1-PDC tumor spheroids, viability;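 further: spheroids exposed to agents for 7 days before the viability read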
value.unit: %
readout.number: 90.8

Please go through the list and note viability, T/C for each compound.
1. C=CC(=O)N1CCN(c2nc(=O)n(-c3c(C)ccnc3C(C)C)c3nc(-c4c(O)cccc4F)c(F)cc23)C(C)C1 (stereo not given) + CC(Nc1ccc2c(c1)OCCn1cc(N3C(=O)OCC3C(F)F)nc1-2)C(N)=O
2. CC(C)n1nc(-c2ccc3oc(N)nc3c2)c2c(N)ncnc21 + Cc1nc(NC(=O)N2CCCC2C(N)=O)sc1-c1ccnc(C(C)(C)C(F)(F)F)c1

9.98
9.37
